B1: SBD of Fbs1 (117–297), wild type [murine] / ribonuclease B [modified: a single high-mannose oligosaccharide; a single high-mannose oligosaccharide] [bovine] (parent)
chain 1: FYFLSKRRRNLLRNPCGEEDLEGWSDVEHGGDGWRVEELPGDNGVEFTQDDSVKKYFASSFEWCRKAQVIDLQAEGYWEELLDTTQPAIVVKDWYSGRTDAGSLYELTVRLLSENEDVLAEFATGQVAVPEDGSWMEISHTFIDYGPGVRFVRFEHGGQDSVYWKGWFGARVTNSSVWVEP
chain 2: KETAAAKFERQHMDSSTSAASSSNYCNQMMKSRNLTKDRCKPVNTFVHESLADVQAVCSQKNVACKNGQTNCYQSYSTMSITDCRETGSSKYPNCAYKTTQANKHIIVACEGNPYVPVHFDASV

Variants of: B1
PROCEDURE_DETAILS: pull-down
REPORTED_CONDITIONS: with ribonuclease B [modified: a single high-mannose oligosaccharide, parent: 100, read off a plot
ASSAY_ENDPOINT: percent of parent (%)

Worked cases, percent of parent given:
- MUTATION_STRING: "chain 1 A101C"
  percent of parent / %: 100
- MUTATION_STRING: "chain 1 L104K"
  percent of parent / %: 110
- MUTATION_STRING: "chain 1 T99P"
  percent of parent / %: 49

1: chain 1 T99P L104K
2: chain 1 T99P A101C
3: chain 1 A101C L104K
Reorder the items by percent of parent, least to greatest. Answer by naming the labels in the order asked.
2, 1, 3

Taken from paper PMC4603797.
